For each record, write down the corresponding pIC50.
target-or-system: PDE 2 enzyme isolated from human platelets (Homo sapiens)
Construct: PDE 2 enzyme was isolated from human platelets; from tissue; host or cells: human platelets (pooled blood from multiple donors); HiTrap Q anion-exchange fraction eluting at about 325 mM NaCl
test-method-notes: PDE 2 enzyme scintillation proximity assay (SPA)
Type: biochemical
settings: SPA, 1 μM substrate; read-out: PDE 2 Inhibition
pIC50: −log10 of the molar value.

Illustrative cases are given below, each with its answer.
COc1cc(CNc2nc(NCc3ccc(C(C)(C)O)cc3)nc3ncccc23)cc(OC)c1: 6.00 to 6.60
COc1cc(CNc2nc(NCCc3ccncc3)nc3ncccc23)cc(OC)c1: 6.00 to 6.60
COc1ccc(CNc2nc(NCCCc3ccccc3)nc3ncccc23)cc1OC: 6.00 to 6.60
COc1cc(CNc2nc(NCCCc3ccc(C(C)(C)O)cc3)nc3ncccc23)cc(OC)c1: 6.60 to 7.30

Q. So what's the measured pIC50 for this one? COc1cc(CNc2nc(NCCc3ccccc3)nc3ncccc23)cc(OC)c1
A. 6.60 to 7.30

###

Test system: femur (periosteal bone induction)
test-method-notes: Rat periosteal injection model
Format: in vivo
settings: daily local injection five times per week for two weeks; Day 15; male Sprague-Dawley rats
For each record, write down the corresponding bone mineral content (BMC) increase of injected region of femur by DEXA vs vehicle.
One number for each entry, in %.

Illustrative cases are given below, each with its answer.
COc1ccc(CNc2nc(NCCCc3cccc(C(C)(C)O)c3)nc3ncccc23)cc1OC: 49
COc1ccc(Cc2nc3c(ncn3C(CCCc3ccccc3)C(C)=O)c(=O)[nH]2)cc1OC (stereo not shown) [reference compound]: 20

Working through the 2 molecules below one at a time, give bone mineral content (BMC) increase of injected region of femur by DEXA vs vehicle for each.
1. COc1ccc(CNc2nc(NCCCc3ccccc3)nc3ncccc23)cc1OC
2. COc1cc(CNc2nc(NCCc3ccncc3)nc3ncccc23)cc(OC)c1

A.
33
34

###

target-or-system: PDE 2 enzyme isolated from human platelets (Homo sapiens, UniProt O00408)
Construct: PDE 2 enzyme was isolated from human platelets; from tissue; host or cells: human platelets (pooled blood from multiple donors); HiTrap Q anion-exchange fraction eluting at about 325 mM NaCl
Sequence (O00408 whole entry): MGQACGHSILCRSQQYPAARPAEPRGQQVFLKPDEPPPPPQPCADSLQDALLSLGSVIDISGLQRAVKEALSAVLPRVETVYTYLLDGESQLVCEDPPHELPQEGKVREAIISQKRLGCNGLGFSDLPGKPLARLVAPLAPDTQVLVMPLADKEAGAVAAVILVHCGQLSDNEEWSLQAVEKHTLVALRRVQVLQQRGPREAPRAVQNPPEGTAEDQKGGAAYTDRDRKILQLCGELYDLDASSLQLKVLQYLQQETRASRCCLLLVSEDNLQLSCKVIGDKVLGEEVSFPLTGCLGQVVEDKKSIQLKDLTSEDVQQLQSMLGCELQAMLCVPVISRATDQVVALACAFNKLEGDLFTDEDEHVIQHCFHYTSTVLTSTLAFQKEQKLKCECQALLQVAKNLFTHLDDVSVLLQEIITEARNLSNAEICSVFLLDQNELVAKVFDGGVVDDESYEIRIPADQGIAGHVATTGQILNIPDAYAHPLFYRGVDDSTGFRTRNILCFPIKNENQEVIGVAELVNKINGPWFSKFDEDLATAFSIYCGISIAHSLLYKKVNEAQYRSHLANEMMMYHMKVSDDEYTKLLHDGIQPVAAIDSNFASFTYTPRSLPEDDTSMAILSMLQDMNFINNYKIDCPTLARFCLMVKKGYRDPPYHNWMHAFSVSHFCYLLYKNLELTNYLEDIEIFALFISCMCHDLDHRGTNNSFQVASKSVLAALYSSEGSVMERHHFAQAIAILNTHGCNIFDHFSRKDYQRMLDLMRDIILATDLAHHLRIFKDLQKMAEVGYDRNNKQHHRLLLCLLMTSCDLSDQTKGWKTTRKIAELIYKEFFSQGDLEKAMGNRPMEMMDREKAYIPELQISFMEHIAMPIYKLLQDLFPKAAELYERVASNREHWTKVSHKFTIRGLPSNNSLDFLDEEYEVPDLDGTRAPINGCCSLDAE
test-method-notes: PDE 2 enzyme scintillation proximity assay (SPA)
Assay type: biochemical
settings: SPA, 1 μM substrate; read-out: PDE 2 Inhibition
pIC50: −log10 of the molar value.
For each record, write down the corresponding pIC50.

Working through the 5 compounds below one at a time, give pIC50 for each.
1. COc1cc(CNc2nc(NCCc3cccnc3)nc3ncccc23)cc(OC)c1
2. COc1ccc(CNc2nc(NCCc3ccccc3F)nc3ncccc23)cc1OC
3. COc1ccc(CNc2nc(NCCc3cccc(F)c3)nc3ncccc23)cc1OC
4. COc1ccc(CNc2nc(NCCCc3ccc(C(C)(C)O)cc3)nc3ncccc23)cc1OC
5. COc1ccc(CNc2nc(NCCc3ccccc3)nc3ncccc23)cc1OC

A.
1. 6.60 to 7.30
2. 6.60 to 7.30
3. 6.60 to 7.30
4. 6.00 to 6.60
5. > 7.30

###

For each record, write down the corresponding melting point.

COc1cc(CNc2nc(NCCc3ccncc3)nc3ncccc23)cc(OC)c1: 234 to 235 °C
COc1ccc(CNc2nc(NCc3ccccc3C(F)(F)F)nc3ncccc23)cc1OC: 227 to 228 °C
COc1ccc(CNc2nc(NCCc3cccc(F)c3)nc3ncccc23)cc1OC: 227 to 228 °C
CCOc1cc(CNc2nc(NCCCc3ccccc3)nc3ncccc23)ccc1OC: 181 to 182 °C
CCOc1cc(CNc2nc(NCCCc3ccc(C(C)(C)O)cc3)nc3ncccc23)ccc1OC: 150 to 152 °C

Working through the 8 molecules below one at a time, give melting point for each.
1. COc1cc(CNc2nc(NCc3ccccc3)nc3ncccc23)cc(OC)c1
2. COc1cc(CCNc2nc(NCc3cc(OC)cc(OC)c3)c3cccnc3n2)cc(OC)c1
3. COc1ccc(CNc2nc(NCCOc3ccccc3)nc3ncccc23)cc1OC
4. COc1ccc(CNc2nc(NCCCc3ccc(C#N)cc3)nc3ncccc23)cc1OC
5. COc1ccc(CNc2nc(NCCCc3ccccc3)nc3ncccc23)cc1OC
6. COc1ccc(CNc2nc(NCCCc3cccc(C(C)(C)O)c3)nc3ncccc23)cc1OC
7. COc1cc(CNc2nc(NCCc3cccs3)nc3ncccc23)cc(OC)c1
8. COc1ccc(CNc2nc(NCCCc3ccc(C(O)C(F)(F)F)cc3)nc3ncccc23)cc1OC (stereo not drawn)

A.
1: 84 to 85 °C; 2: 95 to 100 °C; 3: 227 to 228 °C; 4: 220 to 222 °C; 5: 190 to 192 °C; 6: 204 to 205 °C; 7: 120 to 121 °C; 8: 222 to 224 °C

Working through the 2 molecules below one at a time, give melting point for each.
1. COc1ccc(CNc2nc(NCCCc3ccc4nonc4c3)nc3ncccc23)cc1OC
2. COc1cc(CNc2nc(NCCc3cccnc3)nc3ncccc23)cc(OC)c1

A.
1: 191 to 193 °C; 2: 185 to 186 °C

Working through the 3 molecules below one at a time, give melting point for each.
1. COc1ccc(CNc2nc(NCc3ccc(C(O)C(F)(F)F)cc3)nc3ncccc23)cc1OC (stereo not drawn)
2. COc1cc(CNc2nc(NCc3cccnc3)nc3ncccc23)cc(OC)c1
3. COc1ccc(CCNc2nc(NCc3cc(OC)cc(OC)c3)c3cccnc3n2)cc1

A.
["121 to 122 °C", "222 to 223 °C", "88 to 89 °C"]

###

target-or-system: PDE 2 enzyme isolated from human platelets (Homo sapiens, UniProt O00408)
Construct: PDE 2 enzyme was isolated from human platelets; from tissue; host or cells: human platelets (pooled blood from multiple donors); HiTrap Q anion-exchange fraction eluting at about 325 mM NaCl
test-method-notes: PDE 2 enzyme scintillation proximity assay (SPA)
Assay type: biochemical
settings: PDE 2; read-out: IC50
readout-type: pIC50
Give bare numbers, as −log10 of the molar value.

Q. So what's the measured pIC50 for this one? COc1ccc(Cc2nc3c(ncn3C(CCCc3ccccc3)C(C)=O)c(=O)[nH]2)cc1OC (stereo not shown) [reference compound]
A. 8.52

###

target-or-system: PDE 2 enzyme isolated from human platelets (Homo sapiens, UniProt O00408)
Construct: PDE 2 enzyme was isolated from human platelets; from tissue; host or cells: human platelets (pooled blood from multiple donors); HiTrap Q anion-exchange fraction eluting at about 325 mM NaCl
test-method-notes: PDE 2 enzyme scintillation proximity assay (SPA)
Type: biochemical
settings: SPA, 1 μM substrate; read-out: PDE 2 Inhibition
pIC50: −log10 of the molar value.
For each record, write down the corresponding pIC50.

COc1cc(CCNc2nc(NCc3cc(OC)cc(OC)c3)c3cccnc3n2)cc(OC)c1: 6.60 to 7.30
COc1ccc(CNc2nc(NCc3ccc(C(O)C(F)(F)F)cc3)nc3ncccc23)cc1OC (stereo not drawn): 6.00 to 6.60
COc1ccc(CNc2nc(NCCCc3ccc(C(C)=O)cc3)nc3ncccc23)cc1OC: 6.00 to 6.60
COc1cc(CNc2nc(NCc3ccccc3)nc3ncccc23)cc(OC)c1: 6.00 to 6.60
CCOc1cc(CNc2nc(NCCCc3ccc(C(C)(C)O)cc3)nc3ncccc23)ccc1OC: 6.00 to 6.60
COc1ccc(CNc2nc(NCCCc3cccc(C(C)(C)O)c3)nc3ncccc23)cc1OC: 6.00 to 6.60
COc1ccc(CNc2nc(NCCc3ccc(F)cc3)nc3ncccc23)cc1OC: > 7.30
COc1cc(CNc2nc(NCCCc3ccccc3)nc3ncccc23)cc(OC)c1: 6.60 to 7.30
COc1ccc(CNc2nc(NCCOc3ccccc3)nc3ncccc23)cc1OC: 6.60 to 7.30
COc1ccc(CNc2nc(NCCCc3ccc4ncsc4c3)nc3ncccc23)cc1OC: 6.00 to 6.60

Working through the 4 compounds below one at a time, give pIC50 for each.
1. COc1cc(CNc2nc(NCCOc3ccccc3)nc3ncccc23)cc(OC)c1
2. CCOc1cc(CNc2nc(NCCCc3ccccc3)nc3ncccc23)ccc1OC
3. COc1ccc(CNc2nc(NCCCc3ccc(C(O)C(F)(F)F)cc3)nc3ncccc23)cc1OC (stereo not drawn)
4. COc1ccc(CNc2nc(NCCCc3ccc(C#N)cc3)nc3ncccc23)cc1OC

A.
["6.60 to 7.30", "6.00 to 6.60", "6.60 to 7.30", "6.00 to 6.60"]

Working through the 2 compounds below one at a time, give pIC50 for each.
1. COc1cc(CNc2nc(NCCc3ccc(Cl)cc3)nc3ncccc23)cc(OC)c1
2. COc1ccc(CNc2nc(NCCCc3cccc(C4(C)OCCO4)c3)nc3ncccc23)cc1OC

A.
1: 6.00 to 6.60; 2: 6.00 to 6.60

Working through the 2 compounds below one at a time, give pIC50 for each.
1. COc1ccc(CNc2nc(NCCCc3ccc4nonc4c3)nc3ncccc23)cc1OC
2. COc1ccc(CNc2nc(NCCCc3cccc(C(C)=O)c3)nc3ncccc23)cc1OC

A.
1. 6.00 to 6.60
2. 6.00 to 6.60

Where do the numbers come from? From patent US20070135457A1.
